Test system: 317291-083-R-J1-PDC complex spheroids, viability;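 note: spheroids exposed to compounds for one week before readout; percent viability relative to DMSO vehicle wells taken as 100%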
Experiment: Anticancer human tumor 317291-083-R-J1-PDC patient-derived soft tissue sarcoma cell line growth inhibition [GQUAD]
Settings: second compound 10 µM; first compound 3.16 µM; stronger effect = lower value
Listing: viability, T/C of selected compounds

compound | experimentalSystem | resultUnit | viability, T/C
CC(=O)O[C@H]1C(=O)[C@@]2(C)[C@H]([C@H](OC(=O)c3ccccc3)[C@]3(O)C[C@H](OC(=O)[C@H](O)[C@@H](NC(=O)c4ccccc4)c4ccccc4)C(C)=C1C3(C)C)[C@]1(OC(C)=O)CO[C@@H]1C[C@@H]2O + Cc1cnc(CNC(=O)c2c(=O)c3ccc(N4CCCN(C)CC4)nc3n3c2sc2ccccc23)cn1 | 317291-083-R-J1-PDC complex spheroids, viability | % | 0.95
O=c1[nH]cc(F)c(=O)[nH]1 + Cc1cnc(CNC(=O)c2c(=O)c3ccc(N4CCCN(C)CC4)nc3n3c2sc2ccccc23)cn1 | 317291-083-R-J1-PDC complex spheroids, viability | % | 25.7
CC1COCCN1c1cc(C2(S(C)(=N)=O)CC2)nc(-c2ccnc3[nH]ccc23)n1 (stereo not drawn) + Cc1cnc(CNC(=O)c2c(=O)c3ccc(N4CCCN(C)CC4)nc3n3c2sc2ccccc23)cn1 | 317291-083-R-J1-PDC complex spheroids, viability | % | 20.8
